Where these numbers come from: ChEMBL document CHEMBL1139492

tested on: Rattus norvegicus; experiment: Effect of the 25 mg/kg compound on 3-alpha,5alpha-THDOC concentration in rat cerebral cortex after 30 min of intraperitoneal administration; format: functional, organism-based; design: dose 25 mg/kg
Metric name: Concentration (ng/g)
Give the value, in units of ng/g, as a plain number.

// known answers, use as guide
CCCCN(C(=O)Cc1c(-c2ccccc2)nc2c(Cl)cc(Cl)cn12)c1ccccc1    2.6
C=CCN(CC=C)C(=O)Cc1c(-c2ccc(Cl)cc2)nc2c(Cl)cc(Cl)cn12    3.2
O=C(Cc1c(-c2ccc(Cl)cc2)nc2c(Cl)cc(Cl)cn12)N1CCCCC1    2.9
CCCCN(CCCC)C(=O)Cc1c(-c2ccc(Cl)cc2)nc2c(Cl)cccn12    2.9
CN(C(=O)Cc1c(-c2ccc(Cl)cc2)nc2c(Cl)cc(Cl)cn12)c1ccccc1    2.8
CCCCN(C)C(=O)Cc1c(-c2ccccc2)nc2c(Cl)cc(Cl)cn12    4.1
CCCCN(CCCC)C(=O)Cc1c(-c2ccc(Cl)cc2)nc2c(Cl)cc(Cl)cn12    3.5

Next:
Item under review: CCCCN(C)C(=O)Cc1c(-c2ccc(Cl)cc2)nc2c(Cl)cc(Cl)cn12 . Reported Concentration?
3.9

----------
molecular target: Translocator protein (Rattus norvegicus, UniProt P16257); experiment: Displacement of [3H]-PK11195 from peripheral benzodiazepine receptor of rat ovary; assay type: tissue-based, Female gonad
Sequence (P16257 whole entry, looked up): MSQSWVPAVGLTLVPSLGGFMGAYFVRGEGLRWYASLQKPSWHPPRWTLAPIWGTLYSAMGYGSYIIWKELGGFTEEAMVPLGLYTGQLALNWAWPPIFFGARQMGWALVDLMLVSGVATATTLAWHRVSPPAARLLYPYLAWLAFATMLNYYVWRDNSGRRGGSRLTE
// boundary case: Ki equal to 0.03 µM maps to False; strictly smaller maps to True

Worked examples follow.
CCCCN(C)C(=O)Cc1c(-c2ccccc2)nc2c(Cl)cc(Cl)cn12    True
O=C(Cc1c(-c2ccc(Cl)cc2)nc2c(Cl)cc(Cl)cn12)N1CCc2ccccc2C1    True

Dear colleague, could you confirm whether Ki of C=CCN(CC=C)C(=O)Cc1c(-c2ccc(Cl)cc2)nc2c(Cl)cc(Cl)cn12 falls below 0.03 µM? Thanks.
True

Below 0.03 µM on Ki? Entry CCCCN(CCCC)C(=O)Cc1c(-c2ccc(Cl)cc2)nc2c(Cl)cc(Cl)cn12
True

Please check: Ki for CCCCN(C(=O)Cc1c(-c2ccccc2)nc2c(Cl)cc(Cl)cn12)c1ccccc1 , strictly under 0.03 µM or not?
True

State whether 0.03 µM exceeds Ki recorded for O=C(Cc1c(-c2ccccc2)nc2c(Cl)cc(Cl)cn12)NC1CCCCC1 .
False

State whether 0.03 µM exceeds Ki recorded for O=C(Cc1c(-c2ccc(Cl)cc2)nc2c(Cl)cc(Cl)cn12)NC1CCCCC1 .
False

Problem: For the compound CCCN(Cc1ccc([N+](=O)[O-])cc1)C(=O)Cc1c(-c2ccc(Cl)cc2)nc2c(Cl)cc(Cl)cn12 , is Ki under 0.03 µM?
False

Identify whether the compound CCCCN(C(=O)Cc1c(-c2ccc(Cl)cc2)nc2c(Cl)cc(Cl)cn12)c1ccccc1 records Ki below 0.03 µM.
True

----------
target: Translocator protein (Rattus norvegicus); experiment: Displacement of [3H]PK11195 from peripheral benzodiazepine receptor of rat cerebral cortex; format: tissue-based
pKi: −log10 of the molar value.
Quick rule for you: pKi at 7 or higher means True, lower means False.

Reference set, count: 3
CCCCN(CCCC)C(=O)Cc1c(-c2ccc(Cl)cc2)nc2c(Cl)cccn12    True
O=C(Cc1c(-c2ccccc2)nc2c(Cl)cc(Cl)cn12)NC1CCCCC1    False
CN(C(=O)Cc1c(-c2ccc(Cl)cc2)nc2c(Cl)cc(Cl)cn12)c1ccccc1    True

Proceed to the following item.
State whether the measured pKi reaches 7, counting equality as reaching it, for CC(C)(C)N(Cc1ccccc1)C(=O)Cc1c(-c2ccc(Cl)cc2)nc2c(Cl)cc(Cl)cn12
False
